- Test system: P388
- Measurement Notes: Cytotoxicity against mouse P388 cells
- Type: functional
- Assay Setup: read-out: ED50 (the source's name)
Entries annotated with measured EC50
Recorded Metric: EC50 (µg/mL)

[
  {
    "Compound": "COc1cc(C[C@H]2CO[C@H](c3ccc(O)c(OC)c3)[C@H]2CO)ccc1O (racemic)",
    "Meas Value": 0.38
  },
  {
    "Compound": "COc1cc2cc(Oc3ccc4ccc(=O)oc4c3)c(=O)oc2cc1O",
    "Meas Value": 3.4
  },
  {
    "Compound": "O=c1ccc2ccc(O)cc2o1",
    "Meas Value": 3.1
  },
  {
    "Compound": "COc1cc([C@H]2OC[C@H]3[C@@H]2CO[C@@H]3c2cc(OC)c(O)c(OC)c2)cc(OC)c1O (racemic)",
    "Meas Value": 0.56
  },
  {
    "Compound": "COc1cc(C[C@@H]2CO[C@@H](c3cc(OC)c(O)c(OC)c3)[C@@H]2CO)ccc1O (racemic)",
    "Meas Value": 0.33
  }
]

# credit: ChEMBL document CHEMBL1149016
